Biological target: human SCD5 (Homo sapiens (Human), UniProt Q86SK9)
Sequence (Q86SK9 whole entry): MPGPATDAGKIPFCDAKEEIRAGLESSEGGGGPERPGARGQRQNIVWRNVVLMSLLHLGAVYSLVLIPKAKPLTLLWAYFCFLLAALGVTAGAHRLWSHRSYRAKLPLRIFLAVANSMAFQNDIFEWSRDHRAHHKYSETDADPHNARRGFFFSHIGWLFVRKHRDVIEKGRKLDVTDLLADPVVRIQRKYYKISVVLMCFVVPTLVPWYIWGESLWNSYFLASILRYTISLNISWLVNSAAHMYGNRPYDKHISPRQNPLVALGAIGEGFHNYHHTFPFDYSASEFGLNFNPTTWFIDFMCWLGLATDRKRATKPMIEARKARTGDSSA
Assay: Yeast growth assay, strain expressing human SCD5 as the sole desaturase (reduced growth as surrogate for SCD inhibition)
Settings: yeast with OLE1 deleted expressing human SCD5 from a plasmid; growth read as OD600 after 40 h at 30° C.; top drug concentration 33.3 μM
pIC50: −log10 of the molar value.
Listed below: pIC50 values for each entry.
MEASURED ENDPOINT: pIC50

CC(C)(C)OC(=O)n1cc(NC(=O)c2cc(-c3ccccc3)on2)cn1 [Compound 35]
< 4.35
O=C(Nc1cnn(Cc2ccccc2)c1)c1cc(-c2ccccc2Cl)on1 [Compound 141]
< 4.35
Cn1nccc1C1CCCN1C(=O)c1cc(-c2ccc3c(c2)OCO3)on1 (stereo not shown) [Compound 417]
< 4.35
O=C(c1cc(-c2ccc3c(c2)OCO3)on1)N1CCC(c2ccccc2)C1 (stereo not shown) [Compound 329]
< 4.35
O=C(c1cc(-c2ccc3c(c2)OCO3)on1)N1CC(O)C[C@H]1c1ccccc1 (stereo partly shown) [Compound 414]
< 4.35
O=C(c1noc2c1CCCC2)N1CC(Cc2ccccc2)C1 [Compound 253]
4.89
O=C(Nc1cnn(Cc2ccccc2)c1)c1cc(C2CC2)on1 [Compound 119]
5.70

---

Target: human SCD1 (Homo sapiens (Human))
Assay: Yeast growth assay, strain expressing human SCD1 as the sole desaturase (reduced growth as surrogate for SCD inhibition)
Type: cell-based
Conditions: yeast with OLE1 deleted expressing human SCD1 from a plasmid; growth read as OD600 after 40 h at 30° C.; top drug concentration 33.3 μM
pIC50: −log10 of the molar value.
Listed below: pIC50 values for each entry.
MEASURED ENDPOINT: pIC50

Cn1ncc2ccc(-c3cc(C(=O)N4CC(c5ccccc5)C4)no3)cc21 [Compound 232]
< 4.35
O=C(c1cc(-c2ccccc2)on1)N1CC2(C1)CN(c1ccccc1)C2 [Compound 209]
< 4.35
CNC(=O)c1cc(C(=O)N2CCC(c3ccccc3)C2)no1 (stereo not drawn) [Compound 347]
5.38
O=C(c1cc(-c2ccccc2)on1)N1CC=C(c2cc(F)ccc2Cl)CC1 [Compound 305]
5.32
CC1(c2cc(C(=O)Nc3cnn(Cc4cccc(F)c4)c3)no2)COC1 [Compound 116]
< 4.35
O=C(c1cc(-c2ccc3c(c2)OCO3)on1)N1CCCC1c1cccnc1 (stereo not drawn) [Compound 362]
< 4.35
O=C(Nc1cnn(Cc2cccnc2C(F)(F)F)c1)c1cc(-c2ccccc2F)on1 [Compound 177]
< 4.35
CSCC(c1ccccc1)n1cc(NC(=O)c2cc(-c3ccccc3)on2)cn1 (stereo not drawn) [Compound 73]
< 4.35
O=C(c1cc(-c2ccccc2)on1)N1CCC(c2cccnc2)CC1 [Compound 322]
< 4.35
O=C(c1cc(N2CCOCC2)on1)N1CCC[C@H]1c1ccccc1 [Compound 463]
< 4.35
Cc1ncc(-c2cc(C(=O)Nc3cnn(Cc4ccccc4)c3)no2)s1 [Compound 133]
< 4.35
N#Cc1ccccc1-c1cc(C(=O)Nc2cnn(Cc3cccc(F)c3)c2)no1 [Compound 103]
< 4.35
CO[C@@H]1CCN(c2cc(C(=O)Nc3cnn(Cc4ccccc4)c3)no2)C1 [Compound 188]
7.13
O=C(NC1CN(C(=O)c2cc(-c3ccccc3)on2)C1)c1ccccc1 [Compound 240]
< 4.35
Cc1cc(C2CCCN2C(=O)c2cc(-c3ccco3)on2)on1 (stereo not drawn) [Compound 357]
< 4.35
O=C(c1cc(-c2ccc3c(c2)OCO3)on1)N1CCC(c2ccccc2C(F)(F)F)CC1 [Compound 302]
< 4.35
O=C(c1noc2c1CCCC2)N1CC(c2ccccc2)C1 [Compound 252]
< 4.35
COc1ccc(C2CCCN2C(=O)c2cc(-c3ccc(F)c(OC)c3)on2)cc1 (stereo not drawn) [Compound 383]
4.44

---

Listed below: IC50 values for each entry.
Target: UniProtKB Q86SK9
Assay: Yeast growth assay, strain expressing human SCD5 as the sole desaturase (reduced growth as surrogate for SCD inhibition)
Details: yeast with OLE1 deleted expressing human SCD5 from a plasmid; growth read as OD600 after 40 h at 30° C.; top drug concentration 33.3 μM
MEASURED ENDPOINT: IC50

O=C(Nc1cnn(Cc2ccc(Cl)c(Cl)c2)c1)c1cc(-c2ccco2)on1
> 45 µM
O=C(c1cc(-c2ccc3c(c2)OCO3)on1)N1CCN(c2cc(F)ccc2Cl)CC1
8.68 µM
O=C(Nc1cnn(Cc2cccc(F)c2)c1)c1cc(-c2ncccn2)on1
> 45 µM
O=C(Nc1cnn(Cc2ccccc2Cl)c1)c1cc(-c2cccc3c2cnn3C2COC2)on1
> 45 µM
O=C(Nc1cnn(Cc2ccccc2)c1)c1cc(-c2ccncc2F)on1
7.4 µM
O=C(c1cc(CC2CC2)on1)N1CCCC1c1ccccc1 (centres unmarked)
> 45 µM
CC(C)(C)c1cc(C(=O)Nc2cnn(Cc3ccccc3)c2)no1
2.7 µM
O=C(Nc1cnn(Cc2cccc(F)c2)c1)c1cc(-c2cccnc2)on1
> 45 µM
O=C(Nc1cnn(Cc2ccccc2Cl)c1)c1cc(-c2cccc3cn(C4COC4)nc23)on1
> 45 µM
Cc1nn(C)c(C)c1NC(=O)c1cc(-c2ccco2)on1
> 45 µM
COc1ccc(C2CCCN2C(=O)c2cc(-c3ccc(C(F)(F)C(F)(F)F)cc3)on2)cc1 (centres unmarked)
> 45 µM
O=C(Nc1cc(-c2ccco2)on1)c1cnn(Cc2ccc(Cl)c(Cl)c2)c1
> 45 µM
CC1(C(=O)Nc2ccccc2)CN(C(=O)c2cc(-c3ccccc3)on2)C1
> 45 µM
N#Cc1ccccc1-c1cc(C(=O)N2CCC(c3ccccc3)CC2)no1
5.7 µM
C=C(C)c1cc(C(=O)N2CCC3(CCc4c(F)cccc4O3)CC2)no1
3.8 µM
O=C(Nc1ccccc1)C1CCCN1C(=O)c1cc(-c2ccc3c(c2)OCO3)on1 (centres unmarked)
> 45 µM
COc1ccc(C2CCCN2C(=O)c2cc(-c3ccc(F)c(F)c3)on2)cc1 (centres unmarked)
> 45 µM
O=C(Nc1cnn(Cc2ccccc2)c1)c1cc(-c2cccc3cnn(C4COC4)c23)on1
> 45 µM
O=C(c1cc(-c2ccc3c(c2)OCO3)on1)N1CCC1c1ccc(F)cc1 (centres unmarked)
3.26 µM
CC(C)(O)c1cc(C(=O)Nc2cnn(Cc3ccccc3)c2)on1
> 45 µM

---

Listed below: IC50 values for each entry.
Target: human SCD1 (Homo sapiens (Human), UniProt O00767)
Sequence (O00767 whole entry): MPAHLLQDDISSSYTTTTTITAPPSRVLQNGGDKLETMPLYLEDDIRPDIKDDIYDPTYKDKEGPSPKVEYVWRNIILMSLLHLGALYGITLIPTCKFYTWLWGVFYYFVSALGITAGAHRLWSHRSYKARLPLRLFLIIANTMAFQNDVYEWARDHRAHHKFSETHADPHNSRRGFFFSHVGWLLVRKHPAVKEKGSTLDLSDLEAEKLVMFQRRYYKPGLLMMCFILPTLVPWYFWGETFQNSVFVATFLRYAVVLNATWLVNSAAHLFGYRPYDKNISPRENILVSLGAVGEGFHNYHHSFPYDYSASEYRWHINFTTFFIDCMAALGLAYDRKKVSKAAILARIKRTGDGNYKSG
Assay: Yeast growth assay, strain expressing human SCD1 as the sole desaturase (reduced growth as surrogate for SCD inhibition)
Conditions: yeast with OLE1 deleted expressing human SCD1 from a plasmid; growth read as OD600 after 40 h at 30° C.; top drug concentration 33.3 μM
MEASURED ENDPOINT: IC50

CC(C)c1cc(C(=O)N2CCC(c3cccc(F)c3)C2)no1 (stereo not shown) [Compound 350]
> 45 µM
O=C(c1cc(-c2ccc3c(c2)OCO3)on1)N1CCCC1C1CCOCC1 (stereo not shown) [Compound 413]
> 45 µM
O=C(Nc1cnn(Cc2ccccc2Cl)c1)c1cc(-c2cccc3cn(C4COC4)nc23)on1 [Compound 92]
> 45 µM
Cn1nc(Cc2ccc(Cl)c(Cl)c2)cc1NC(=O)c1cc(-c2ccco2)on1 [Compound 27]
> 45 µM
O=C(c1cc(-c2ccc3c(c2)OCO3)on1)N1CCCC1c1nc2ccccc2o1 (stereo not shown) [Compound 461]
> 45 µM
O=C(Nc1ccnc(Oc2ccccc2)c1)c1cc(-c2ccccc2)on1 [Compound 312]
> 45 µM
O=C(c1cc(-c2ccc3c(c2)OCO3)on1)N1C[C@H](O)C[C@H]1c1ccccc1 [Compound 422]
> 45 µM
